Where these numbers come from: the RepoRT retention time repository (doi:10.1038/s41586-021-03707-9)

Entries annotated with measured LC retention time
Experiment: Waters ACQUITY UPLC BEH C18, 100 × 2.1 mm, 1.7 µm, 40 °C, 0.28 mL/min, estimated dead time 0.63 min; A: water + 6.5 mM ammonium hydroxide; B: methanol + 6.5 mM ammonium hydroxide; gradient (min/%B) 0/0.5 4/70 4.5/98 5.4/98
Conditions: stereoisomer not certain
Write the value in min as a bare number.

Example cases with answers are listed next.
CC1=C(CCC(=O)O)c2cc3nc(cc4[nH]c(cc5[nH]c(cc1n2)c(C)c5CCC(=O)O)c(CCC(=O)O)c4C)C(CCC(=O)O)=C3C    3.64
CC(=O)NC(CCCCN)C(=O)O (stereo unspecified)    0.916

What value of LC retention time has been recorded for this entry: NCCCC(=O)O
0.769

// same read-out, input: Cc1ccc(OC2OC(C(=O)O)C(O)C(O)C2O)cc1 (stereo unspecified)
2.77

// same read-out, input: O=C(O)CCCCCCCCCO
3.96

// same read-out, input: OCC1OC(OC2C(CO)OC(OC3C(CO)OC(O)C(O)C3O)C(O)C2O)C(O)C(O)C1O (stereo unspecified)
0.851

* * *

Test: RP, Waters ACQUITY UPLC HSS C18, 100 × 2.1 mm, 1.7 µm, 40 °C, 0.35 mL/min, estimated dead time 0.63 min; A: water + 0.1% formic acid; B: methanol + 0.1% formic acid; gradient (min/%B) 0/0.5 4/70 4.5/98 5.4/98
Details: stereoisomer not certain
Observation type: LC retention time
Please append the unit to your numeric answer.

Cn1cnc2c1c(=O)[nH]c(=O)n2C    2.5 min
O=C(C=Cc1ccc(O)c(O)c1)OC1CC(O)(C(=O)O)CC(O)C1O (stereo unspecified)    3.03 min
CC(=O)NC(CC(C)C)C(=O)O (stereo unspecified)    3.9 min
O=C(O)c1ccc(O)c(O)c1O    2.59 min
CC(=O)NCCc1c[nH]c2ccc(O)cc12    3.01 min

Next compound, please.
What value of LC retention time has been recorded for this entry: O=C1Cc2ccccc2N1
3.76 min

* * *

Test: Waters ACQUITY UPLC BEH C18, 100 × 2.1 mm, 1.7 µm, 40 °C, 0.28 mL/min, estimated dead time 0.63 min; A: water + 6.5 mM ammonium hydroxide; B: methanol + 6.5 mM ammonium hydroxide; gradient (min/%B) 0/0.5 4/70 4.5/98 5.4/98
Details: stereoisomer not certain
Note: every record was labeled by where its LC retention time sits among label 0 = under 1 min, label 1 = from 1 min up to 3 min, label 2 = 3 min and over

O=C(O)CCCc1ccccc1    label 2
O=C(O)CNC(=O)c1ccco1    label 1
CN(C)CC(=O)O    label 0
COC(=O)C(Cc1ccccc1)NC(=O)C(N)CC(=O)O (stereo not drawn)    label 2
CCOC(=O)c1ccc(N)cc1    label 2

Band assignment needed for Cc1cnc(=O)[nH]c1N please.
label 1

* * *

Experiment: Waters ACQUITY UPLC BEH C18, 100 × 2.1 mm, 1.7 µm, 40 °C, 0.28 mL/min, estimated dead time 0.63 min; A: water + 6.5 mM ammonium hydroxide; B: methanol + 6.5 mM ammonium hydroxide; gradient (min/%B) 0/0.5 4/70 4.5/98 5.4/98
Settings: stereoisomer not certain
Observation type: LC retention time (min)
Write the value in min as a bare number.

Example cases with answers are listed next.
O=C(O)CCCCCCCCCCCO    4.86
O=C(O)c1cccc(O)c1O    1.56
c1ccc2[nH]ccc2c1    4.85
O=C(O)CNC(=O)c1cccnc1    1.67
Oc1ccc(O)cc1    1.95

What value of LC retention time has been recorded for this entry: NC(N)=NCCCC(N)C(=O)O (configuration not stated)
0.845

// same read-out, input: O=C(O)CCc1ccccc1O
2.93

// same read-out, input: CC1=CC(=O)NS(=O)(=O)O1
1.78

* * *

Experiment: RP, Waters ACQUITY UPLC HSS C18, 100 × 2.1 mm, 1.7 µm, 40 °C, 0.35 mL/min, estimated dead time 0.63 min; A: water + 0.1% formic acid; B: methanol + 0.1% formic acid; gradient (min/%B) 0/0.5 4/70 4.5/98 5.4/98
Conditions: stereoisomer not certain
Observation type: LC retention time (min)
Write the value in min as a bare number.

Example cases with answers are listed next.
COc1ccc(C2Sc3ccccc3N(CCN(C)C)C(=O)C2OC(C)=O)cc1 (stereo not given)    4.53
Oc1c[nH]c2ccccc12    3.85
Nc1ccccc1O    1.42

What value of LC retention time has been recorded for this entry: CC1(C)SC2C(NC(=O)C(N)c3ccccc3)C(=O)N2C1C(=O)O (stereo not given)
3.45

// same read-out, input: Nc1cccc(C(=O)O)c1O
1.54

// same read-out, input: CCC(NC(=O)CCC(N)C(=O)O)C(=O)NCC(=O)O (stereo not given)
1.58

// same read-out, input: CSCCC(NC(C)=O)C(=O)O (stereo not given)
2.98

// same read-out, input: CCCc1nc(C)c2c(=O)[nH]c(-c3cc(S(=O)(=O)N4CCN(CC)CC4)ccc3OCC)nn12
4.47

// same read-out, input: OCC1OC(OCC2OC(O)C(O)C(O)C2O)C(O)C(O)C1O (stereo not given)
0.804

// same read-out, input: NC(Cc1ccc(O)c(O)c1)C(=O)O (stereo not given)
1.29

// same read-out, input: NC(N)=NCC(=O)O
0.759

* * *

Entries annotated with measured LC retention time
Test: RP, Waters ACQUITY UPLC HSS C18, 100 × 2.1 mm, 1.7 µm, 40 °C, 0.35 mL/min, estimated dead time 0.63 min; A: water + 0.1% formic acid; B: methanol + 0.1% formic acid; gradient (min/%B) 0/0.5 4/70 4.5/98 5.4/98
Details: stereoisomer not certain
Write the value in min as a bare number.

Example cases with answers are listed next.
NC(=O)c1ccc[n+](C2OC(COP(=O)([O-])O)C(O)C2O)c1 (configuration not stated)    0.907
CC(O)(CC(=O)O)CC(=O)O    1.9
CCCCCCCC(=O)OC(CC(=O)[O-])C[N+](C)(C)C (configuration not stated)    4.65

What value of LC retention time has been recorded for this entry: Nc1ccnc(=O)[nH]1
0.783

// same read-out, input: O=c1[nH]cnc2nc[nH]c12
1.38

// same read-out, input: NC(CS(=O)(=O)O)C(=O)O (configuration not stated)
0.773

// same read-out, input: CC(C)NCC(O)COc1ccc(CC(N)=O)cc1 (configuration not stated)
2.35

// same read-out, input: OCC1OC(OC2C(CO)OC(O)(CO)C2O)C(O)C(O)C1O (configuration not stated)
0.799

// same read-out, input: OCC(O)C(O)C(OC1OC(CO)C(O)C(O)C1O)C(O)CO (configuration not stated)
4.47

* * *

Experiment: Waters ACQUITY UPLC BEH C18, 100 × 2.1 mm, 1.7 µm, 40 °C, 0.28 mL/min, estimated dead time 0.63 min; A: water + 6.5 mM ammonium hydroxide; B: methanol + 6.5 mM ammonium hydroxide; gradient (min/%B) 0/0.5 4/70 4.5/98 5.4/98
Conditions: stereoisomer not certain
Entries annotated with measured LC retention time
Write the value in min as a bare number.

Nc1ccc(C(=O)O)cc1    0.852
NCCc1c[nH]c2ccccc12    3.67
NC(N)=NCCCC(=O)O    0.91
OCC1OC(OC2C(CO)OC(O)(CO)C2O)C(O)C(O)C1O (stereo unspecified)    0.859
NCCc1ccc(O)cc1    2.22
NC(=O)NCCCCC(N)C(=O)O (stereo unspecified)    0.853
O=C(O)Cc1ccc(O)c(O)c1    1.1
O=C(O)c1c(O)cccc1O    2.9

What value of LC retention time has been recorded for this entry: C[N+](C)(C)CC(=O)[O-]
0.809

// same read-out, input: COc1ccc(OC)c(C(O)C(C)N)c1 (stereo unspecified)
3.99

// same read-out, input: COC(=O)Cc1ccc(O)cc1
4.14

* * *

Entries annotated with measured LC retention time
Assay: RP, Waters ACQUITY UPLC HSS C18, 100 × 2.1 mm, 1.7 µm, 40 °C, 0.35 mL/min, estimated dead time 0.63 min; A: water + 0.1% formic acid; B: methanol + 0.1% formic acid; gradient (min/%B) 0/0.5 4/70 4.5/98 5.4/98
Settings: stereoisomer not certain
Write the value in min as a bare number.

What value of LC retention time has been recorded for this entry: CC1NCCc2cc(O)c(O)cc21 (configuration not stated)
1.61

// same read-out, input: O=C(O)CNC(=O)CCc1ccccc1
2.34

// same read-out, input: Cn1c(=O)c2[nH]c(=O)[nH]c2n(C)c1=O
2.47

* * *

Assay: RP, Waters ACQUITY UPLC HSS C18, 100 × 2.1 mm, 1.7 µm, 40 °C, 0.35 mL/min, estimated dead time 0.63 min; A: water + 0.1% formic acid; B: methanol + 0.1% formic acid; gradient (min/%B) 0/0.5 4/70 4.5/98 5.4/98
Conditions: stereoisomer not certain
Observation type: LC retention time (min)
Write the value in min as a bare number.

Example cases with answers are listed next.
O=C(O)C=Cc1ccccc1    4.92
NCCc1c[nH]c2ccccc12    2.82
Oc1ccc(O)cc1    2.83
Cn1c(=O)c2[nH]cnc2n(C)c1=O    2.9

What value of LC retention time has been recorded for this entry: CC(=O)CC(=O)CCC(=O)O
3.3

// same read-out, input: O=c1ccc2cc(OC3OC(CO)C(O)C(O)C3O)c(O)cc2o1 (centres undefined)
2.78

// same read-out, input: CC12CC3CC(C)(C1)CC(N)(C3)C2
4.42

// same read-out, input: COc1cc(CCN)ccc1O
1.99
